Provenance of the data: patent US20140213538A1

# testedTarget: LPA/S1P GPCR of interest (Homo sapiens, UniProt Q92633)
# protocolNotes: Beta-Arrestin based assay (PathHunter)
measureName: EC50

Ask: What does the record list as EC50 for C[C@@H](OC(=O)Nc1c(-c2ccc(-c3ccc(Oc4cc(F)ccc4C(=O)O)cc3)cc2)nnn1C)c1ccccc1 ?
Result: < 50 nM

Ask: What does the record list as EC50 for C[C@@H](OC(=O)Nc1scnc1C#Cc1cc2sc(C3(C(=O)O)CC3)cc2s1)c1ccccc1 ?
Result: > 500 nM

Ask: What does the record list as EC50 for C[C@@H](OC(=O)Nc1c(-c2cc(F)c(-c3cc4sc(C5(C(=O)O)CC5)cc4s3)cc2F)cnn1C)c1ccccc1 ?
Result: < 50 nM

Ask: What does the record list as EC50 for C[C@@H](OC(=O)Nc1c(-c2ccc(C#CC(=O)Nc3cccc(C(=O)O)c3)cc2)cnn1C)c1ccccc1 ?
Result: > 500 nM

Ask: What does the record list as EC50 for C[C@@H](OC(=O)Nc1c(-c2cc3sc(-c4ccc(-c5nnc(C6(C(=O)O)CC6)s5)cc4)cc3s2)nnn1C)c1ccccc1 ?
Result: 50 to 500 nM

Ask: What does the record list as EC50 for Cn1ncc(C#Cc2cc3sc(C4(C(=O)O)CC4)cc3s2)c1N ?
Result: > 500 nM

Ask: What does the record list as EC50 for C[C@@H](OC(=O)Nc1c(-c2cc3sc(-c4ccc(C5(C(=O)O)CC5)cc4OC(F)(F)F)cc3s2)cnn1C)c1ccccc1 ?
Result: 50 to 500 nM

Ask: What does the record list as EC50 for Cc1nsc(-c2ccc(-c3cnc(C4(C(=O)O)CC4)s3)cc2)c1NC(=O)O[C@H](C)c1ccccc1 ?
Result: 50 to 500 nM

Ask: What does the record list as EC50 for Cc1nsc(-c2cc3sc(-c4ccc(-c5nnc(C6(C(=O)O)CC6)s5)cc4)cc3s2)c1NC(=O)O[C@H](C)c1ccccc1 ?
Result: > 500 nM

----------
# testedTarget: LPA1 (Homo sapiens, UniProt Q92633)
# Sequence (Q92633 whole entry): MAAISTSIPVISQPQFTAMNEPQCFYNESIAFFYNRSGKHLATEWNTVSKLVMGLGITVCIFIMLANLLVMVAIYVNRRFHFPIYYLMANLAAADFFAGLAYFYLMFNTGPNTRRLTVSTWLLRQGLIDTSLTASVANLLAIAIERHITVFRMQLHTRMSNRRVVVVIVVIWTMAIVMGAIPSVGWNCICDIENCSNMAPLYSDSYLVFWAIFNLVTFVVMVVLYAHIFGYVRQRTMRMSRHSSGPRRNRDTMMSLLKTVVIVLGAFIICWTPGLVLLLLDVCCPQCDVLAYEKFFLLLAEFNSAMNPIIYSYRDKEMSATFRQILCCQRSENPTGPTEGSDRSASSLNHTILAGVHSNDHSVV
# protocolNotes: LPA1 Migration Assay (Oris)
# experimentalConditions: read-out: Cell Migration EC50
measureName: EC50

Ask: Recall the recorded EC50 for C[C@@H](OC(=O)Nc1c(-c2cc3sc(-c4ccc(CC(=O)O)c(Cl)c4)cc3s2)nnn1C)c1ccccc1 with LPA1 (Homo sapiens, UniProt Q92633) and state it.
Result: > 500 nM

Ask: Recall the recorded EC50 for Cc1nsc(-c2cc3sc(-c4cc(F)c(C5(C(=O)O)CC5)c(F)c4)cc3s2)c1NC(=O)O[C@H](C)c1ccccc1 with LPA1 (Homo sapiens, UniProt Q92633) and state it.
Result: 50 to 500 nM

Ask: Recall the recorded EC50 for C[C@@H](OC(=O)Nc1c(C#Cc2cc(F)c(Oc3ncccc3C(=O)O)c(F)c2)cnn1C)c1ccccc1 with LPA1 (Homo sapiens, UniProt Q92633) and state it.
Result: 50 to 500 nM

Ask: Recall the recorded EC50 for C[C@@H](OC(=O)Nc1c(-c2cc3sc(-c4ccc5scc(CC(=O)O)c5c4)cc3s2)nnn1C)c1ccccc1 with LPA1 (Homo sapiens, UniProt Q92633) and state it.
Result: 50 to 500 nM

Ask: Recall the recorded EC50 for Cc1noc(-c2ccc(-c3cc(F)c(Oc4cccnc4C(=O)O)c(F)c3)cc2)c1NC(=O)O[C@H](C)c1ccccc1 with LPA1 (Homo sapiens, UniProt Q92633) and state it.
Result: < 50 nM

Ask: Recall the recorded EC50 for C[C@@H](OC(=O)Nc1c(-c2cc3sc(-c4ccc(CC(=O)O)c(F)c4)cc3s2)cnn1C)c1ccccc1 with LPA1 (Homo sapiens, UniProt Q92633) and state it.
Result: > 500 nM

Ask: Recall the recorded EC50 for Cc1noc(-c2ccc(-c3cc(F)c(OC4(C(=O)O)CC4)c(F)c3)cc2)c1NC(=O)O[C@H](C)c1ccccc1 with LPA1 (Homo sapiens, UniProt Q92633) and state it.
Result: 50 to 500 nM
